system: S. aureus RN4220; assay: growth inhibition call (relative growth <= 0.2); conditions: 50 µM
Hit rate of the full screen: of about 39,000 compounds, about 500 (1.3%) were called active. The sample as a whole holds a higher share of actives than the screen did.
Mark one answer only. Choices: active, inactive

Some entries whose results are on file:
chemical_string: C[C@@H]1CN([C@H](C)CO)C(=O)c2cccc(NC(=O)Nc3ccc(C(F)(F)F)cc3)c2O[C@H]1CN(C)C(=O)Nc1ccccc1
target_under_test: S. aureus RN4220
group_label: inactive
//
chemical_string: O=C1OCCN1N=Cc1ccc([N+](=O)[O-])o1
target_under_test: S. aureus RN4220
group_label: active
//
chemical_string: C[C@H]1CN([C@@H](C)CO)C(=O)c2cccc(NC(=O)Nc3ccccc3)c2O[C@@H]1CN(C)C(=O)Nc1ccc(C(F)(F)F)cc1
target_under_test: S. aureus RN4220
group_label: inactive
//
chemical_string: C[C@@H]1CN([C@H](C)CO)C(=O)c2cc(NS(=O)(=O)c3ccccc3)ccc2O[C@@H](C)CCCCO[C@@H]1CN(C)C(=O)c1ccccc1
target_under_test: S. aureus RN4220
group_label: inactive
//
chemical_string: O=C1CN(N=Cc2ccc([N+](=O)[O-])o2)C(=O)N1
target_under_test: S. aureus RN4220
group_label: active

Input: How was C[C@H](CO)N1C[C@H](C)[C@H](CN(C)C(=O)Nc2cccc3ccccc23)Oc2c(NC(=O)Nc3ccc(C(F)(F)F)cc3)cccc2C1=O classified in this test?
Output: inactive

Input: How was C[C@H]1CN([C@@H](C)CO)C(=O)c2cccc(NC(=O)Nc3ccc(C(F)(F)F)cc3)c2O[C@@H]1CN(C)C(=O)Nc1ccccc1 classified in this test?
Output: active

Input: How was O=[N+]([O-])c1cncn1CCN1CCOCC1 classified in this test?
Output: inactive
